Data provenance: patent US10322118B2

Please provide measured % Inhibition, plate 1 for the entries that follow.
- Target Under Test: Cif (Pseudomonas aeruginosa (strain UCBPP-PA14), UniProt A0A0H2ZD27)
- Sequence (A0A0H2ZD27 25-319 limits assumed): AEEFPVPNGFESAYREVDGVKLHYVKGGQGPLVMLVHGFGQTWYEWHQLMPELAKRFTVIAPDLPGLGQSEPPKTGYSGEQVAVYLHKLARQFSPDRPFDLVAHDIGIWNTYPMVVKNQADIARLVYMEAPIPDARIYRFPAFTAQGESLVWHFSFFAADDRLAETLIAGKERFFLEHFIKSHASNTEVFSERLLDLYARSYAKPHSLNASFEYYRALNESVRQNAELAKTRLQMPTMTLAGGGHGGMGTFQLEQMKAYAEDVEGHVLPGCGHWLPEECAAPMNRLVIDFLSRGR
- Procedure Text: Secondary screen (sextuplicate) with fluorogenic substrate CMNGC;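 note: purified enzyme assay in 96-well plates, 200 µL volume, fluorescence recorded each minute across a 60 min reaction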
- Type: biochemical
- Cond: secondary screen, 10 μM, plate number 1
# number only, unit % dropped from output

% Inhibition, plate 1 for CC(=O)[C@@]12O[C@](C)(c3ccccc3)O[C@@H]1C[C@H]1[C@@H]3CCC4=CC(=O)CC[C@]4(C)[C@H]3CC[C@@]12C [Algestone acetophenide] is −5

% Inhibition, plate 1 recorded for this molecule, CC(O)CN1CCN(CC(=O)[O-])CCN(CC(=O)[O-])CCN(CC(=O)[O-])CC1.[Gd+3] (centres unmarked) , is 7

Entry CCCCCCCCCCCCCCCC[N+](C)(C)C.[Br-] [Cetrimonium bromide] , % Inhibition, plate 1 reported as 1

Lab book: % Inhibition, plate 1 of CC(=O)[C@H]1CC[C@H]2[C@@H]3CC=C4C[C@@H](OC(=O)CCC(=O)O)CC[C@]4(C)[C@H]3CC[C@]12C [Pregnenolone succinate] noted as 6

Just so you know, measured % Inhibition, plate 1 for `C[C@@H]1C[C@H]2[C@@H]3CCC4=CC(=O)C=C[C@]4(C)[C@@]3(F)[C@@H](O)C[C@]2(C)[C@H]1C(=O)CO` came out at 34
